Tested on: SF-268 CNS
assayMethodText: NCI tumour cell line growth inhibition, 48 h
endpointName: GI50

[[record]]
compound = "COc1ccc(C2SC(C)C(=O)N2NC(=O)C(O)c2ccccc2)cc1OC (stereo not given)"
experimentalvalue = "> 100 µM"


Record GI50 per entry; entries follow.
1. CCOc1ccccc1N=Nc1c(C)[nH]n(-c2nc(-c3ccccc3)cs2)c1=O
2. O=C(Nc1ccc(Cl)c(Cl)c1)O/N=C\c1c(Cl)ccc([N+](=O)[O-])c1Cl
3. CC(C)(O)CC(=O)NCCn1ccc2ncnc(Nc3ccc(Oc4cccc(C(F)(F)F)c4)c(Cl)c3)c21
4. Cc1ccc(S(=O)(=O)Nc2cccc3[nH]c(C(F)(F)F)nc23)cc1
5. C/C=C(\C)C(=O)O[C@H]1C=CC(=O)O[C@@H]1CC[C@H](O)[C@H](C)O
6. CCc1ccc(NC(=O)COC(=O)c2cc([N+](=O)[O-])ccc2Sc2nnnn2C)cc1

A.
1: 35.4 µM; 2: 2.81 µM; 3: 3.5 µM; 4: 1.87 µM; 5: 28.8 µM; 6: 14.5 µM

Record GI50 per entry; entries follow.
1. Nc1nc(Nc2ccc(C3CCC(N4CCOCC4)CC3)cc2)nn1-c1ccccn1 (stereo not given)
2. CCCCN(CCCC)c1ccc(C(=N)c2ccc(N(CCCC)CCCC)cc2)cc1
3. COc1cccc(-n2ncc3c(N/N=C/c4ccncc4)ncnc32)c1

A.
["2.93 µM", "0.679 µM", "> 25 µM"]

###

Could you please report measured GI50 for the items listed next?
Test system: DU-145 prostate
assayMethodText: NCI tumour cell line growth inhibition, 48 h

Below, 2 molecules whose answers are already recorded.
[[record]]
smilesrecord = "Cc1cc(N2CCCC2)nc(N(CCNc2ccnc3cc(Cl)ccc23)Cc2ccco2)n1"
targetofassay = "DU-145 prostate"
endpointname = "GI50"
experimentalvalue = "6.72 µM"

[[record]]
smilesrecord = "Clc1nc(Cl)c2ncn(C/C=C/COc3cccc(OC/C=C/Cn4cnc5c(Cl)nc(Cl)nc54)c3)c2n1"
targetofassay = "DU-145 prostate"
endpointname = "GI50"
experimentalvalue = "14.7 µM"


Could you now look at the following molecule, please?
Q. Entry Nc1[nH]nc2nc(-c3cccs3)cc(C(F)(F)F)c12 , system DU-145 prostate: what GI50 was measured?
A. > 25 µM

###

Test system: HCT-116 colon
assayMethodText: NCI tumour cell line growth inhibition, 48 h
endpointName: TGI

[[record]]
compound = "CCCC(=O)NC(Nc1ccc(S(=O)(=O)Nc2nc(C)cc(C)n2)cc1)(C(F)(F)F)C(F)(F)F"
endpointname = "TGI"
experimentalvalue = "> 100 µM"

[[record]]
compound = "COc1cc(C(C)c2cc3c(cc2OCCO)OCO3)cc(OC)c1OC (stereo not given)"
endpointname = "TGI"
experimentalvalue = "> 100 µM"

[[record]]
compound = "O=C(COc1ccc(/C=C2\\Oc3ccccc3C2=O)cc1)Nc1nc2c(s1)CCCC2"
endpointname = "TGI"
experimentalvalue = "> 100 µM"

[[record]]
compound = "O=C(OCCN=c1c2ccccc2ccc2ccccc12)c1ccc([N+](=O)[O-])cc1"
endpointname = "TGI"
experimentalvalue = "> 100 µM"

[[record]]
compound = "Cc1c2c(n(CCc3ccc(Cl)cc3)c1C)NC(c1ccccc1)C(C#N)S2(=O)=O (stereo not given)"
endpointname = "TGI"
experimentalvalue = "> 100 µM"


Record TGI per entry; entries follow.
1. Cc1ccc2c(c1C)C(=O)/C(=C/c1ccccc1C(=O)O)C2
2. C[C@H]1C[C@H]2[C@@H]3C(C)(C)O[C@]4(O)C(=O)[C@]5(O)[C@@H](C)CC[C@H]1[C@]25C(=O)[C@]34C
3. COC(=O)C1=CC2C(=O)OC1CC2C#N (stereo not given)
4. Cc1cc(N2CCCC2)nc(N(CCNc2ccnc3cc(Cl)ccc23)Cc2ccco2)n1

A.
> 100 µM
> 100 µM
> 100 µM
> 100 µM
